Origin of measurements: PubChem BioAssay

The reader will find reported growth inhibition values listed item by item below.
test: Restrictive medium S. cerevisiae growth inhibition, OD615, pilot screen of yeast lifespan reduction project, restrictive growth control (AID 706); settings: OD615, 48 h, at 10 µM, active compounds read high;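 note: modified DeaD lifespan yeast strain shifted to restrictive glucose medium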
Please give a number only; it is taken to be in %.

>  <COMPOUND>
COc1ccccc1OCC(=O)Nc1ccc(S(=O)(=O)NC(C)=O)cc1

>  <ASSAY_VALUE>
-5.72

$$$$

Input line: Reported growth inhibition for Cc1ccc(-c2nnc(SCC(=O)Nc3ccccc3F)o2)cc1 : what is it?
Output line: 2.46

Input line: Reported growth inhibition for COc1ccccc1N1CCN(C(=O)CCc2ccc(S(=O)(=O)NC(C)C)cc2)CC1 : what is it?
Output line: -19.8

Input line: Reported growth inhibition for CCOC(=O)C1CCCN(C(=O)Cn2ncc3c(=O)oc4ccc(C)cc4c32)C1 (configuration not stated) : what is it?
Output line: -24.9

Input line: Reported growth inhibition for COc1ccc(C)cc1NC(=O)CSc1nnc(-c2ccco2)n1Cc1ccco1 : what is it?
Output line: 10.4

Input line: Reported growth inhibition for Cc1ccc2c(c1)N(CCCC(=O)NCc1ccc3c(c1)OCO3)C(=O)CO2 : what is it?
Output line: -25.1

Input line: Reported growth inhibition for COc1cccc(-n2c(Cc3cc(=O)[nH]c(=O)[nH]3)nnc2SCC(=O)NC2CCCCC2)c1 : what is it?
Output line: -1.15

* * *

experiment: OD615 S. cerevisiae growth inhibition, permissive medium, pilot counter-assay, permissive growth control for S. cerevisiae lifespan shortening project (AID 705); conditions: OD615, 24 h, at 10 µM, active compounds read high
The reader will find reported growth inhibition values listed item by item below.
Please give a number only; it is taken to be in %.

>  <MOLECULE>
CCCN(CCC)CCNC(=O)Cn1cnc2sc(C)c(S(=O)(=O)N3CCOCC3)c2c1=O

>  <growth inhibition [%]>
-0.07

$$$$

Input line: Reported growth inhibition for CCn1cc(C(=O)NCC(=O)OC)c2cc(OC)c(OC)cc2c1=O : what is it?
Output line: -6.43

Input line: Reported growth inhibition for COCCNC(=O)CN(c1ccc(C)cc1)S(=O)(=O)c1ccc(SC)cc1 : what is it?
Output line: -10.6

Input line: Reported growth inhibition for CC(=O)Nc1ccc(OCC=C(Cl)Cl)cc1 : what is it?
Output line: 2.81

Input line: Reported growth inhibition for CCN(CC)S(=O)(=O)c1ccc(C(=O)OCCN2C(=O)CCC2=O)cc1 : what is it?
Output line: -4.98

* * *

test: growth suppression of beta-catenin knockout HCT116, pilot screen, human colon tumor cells (AID 823); settings: CellTiter-Glo, 60 h, at 10 µM, active compounds read low;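 note: 0% = wells killed by 20 µM Hyamine and 100% = untreated DMSO cell wells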
Records with an inconclusive call do not appear.
The reader will find reported viability values listed item by item below.
Please give a number only; it is taken to be in %.

The following molecules have reported results that may help.
>  <MOLECULE>
O=C(CCSCCc1ccccn1)Nc1nccs1

>  <viability (%)>
102

$$$$
>  <MOLECULE>
CC(=O)c1c(C)[nH]c(C(=O)N2c3ccccc3CC2C)c1C (stereo unspecified)

>  <viability (%)>
92.3

$$$$
>  <MOLECULE>
CC1CCN(c2nc(-c3ccncc3)nc3ccccc23)CC1

>  <viability (%)>
40.4

$$$$

Input line: Reported viability for CC1CCCC(NC(=O)CN(C)S(=O)(=O)c2cccc3cccnc23)C1C (stereo unspecified) : what is it?
Output line: 98.7

Input line: Reported viability for COC(=O)C1=C(C)NC(=O)NC1c1cn(-c2ccccc2)nc1-c1cccs1 (stereo unspecified) : what is it?
Output line: 85.6

Input line: Reported viability for COCC(=O)NCc1nc2ccccc2n1Cc1ccccc1F : what is it?
Output line: 98.2

* * *

test: viability gain of MRP-1-high H69AR cells under doxorubicin, pilot screen, MRP-1 activator project, CellTiter-Glo, duplicate (AID 807); settings: H69AR viability with doxorubicin, CellTiter-Glo luminescence; at 10 µM; active compounds read high;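 note: compound pretreatment 18-22 h then 72 h combined with doxorubicin; 0% = doxorubicin alone and 100% = vehicle without doxorubicin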
METRIC_NAME: viability increase (%)
Please give a number only; it is taken to be in %.

The following compounds have reported results that may help.
>  <COMPOUND>
CCOC(=O)Cn1c(=O)oc2cc(S(=O)(=O)N3CCCC(C(=O)OCC)C3)ccc21 (stereo unspecified)

>  <UNIT_INFO>
%

>  <viability increase>
-1.74

$$$$
>  <COMPOUND>
CCOC12NC(=O)CC(=O)N1C(c1ccccc1)=CS2 (stereo unspecified)

>  <UNIT_INFO>
%

>  <viability increase>
2.97

$$$$
>  <COMPOUND>
Cc1cc(C)n(C(CC(=O)N2CCc3ccccc3C2)C(=O)O)n1 (stereo unspecified)

>  <UNIT_INFO>
%

>  <viability increase>
0.01

$$$$
>  <COMPOUND>
CSc1cccc(NC(=O)CN2C(=O)c3ccccc3S2(=O)=O)c1

>  <UNIT_INFO>
%

>  <viability increase>
-0.41

$$$$
>  <COMPOUND>
O=C(/C=C\Nc1ccccn1)c1ccc(Cl)cc1

>  <UNIT_INFO>
%

>  <viability increase>
0.28

$$$$

Input line: Reported viability increase for Cn1nc(-c2ccc(Cl)cc2)c2cc(C(=O)NC3CC3)sc21 : what is it?
Output line: -6.68

* * *

The reader will find reported RAM network inhibition values listed item by item below.
test: RAM signaling pathway blockade in yeast – S. cerevisiae, Pdr1DBD-CYC8 efflux-inhibited sensitized strain, primary screen (AID 1298);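 note: 0% = DMSO untreated cells without growth and 100% = 10 µM 1-NA-PP1 full growth; higher means more yeast growth rescued from 5-FOA killing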; conditions: S. cerevisiae cbk1-as DSE1-URA3 strain, 5-FOA growth OD615, 2 d; at 50 µM; active compounds read high
Please give a number only; it is taken to be in %.

The following molecules have reported results that may help.
>  <MOLECULE>
CCn1c(=NC(=O)CN2C(=O)CCC2=O)sc2c(C)cc(C)cc21

>  <UNIT_INFO>
%

>  <RAM network inhibition>
6.51

$$$$
>  <MOLECULE>
COc1ccc(N(CC(=O)Nc2cc(OC)ccc2OC)S(=O)(=O)c2c(C)nn(C)c2C)cc1

>  <UNIT_INFO>
%

>  <RAM network inhibition>
0.21

$$$$
>  <MOLECULE>
CCOC(=O)C1CCCN(C(=O)c2ccc(CS(=O)(=O)c3ccc(C)cc3)o2)C1 (stereo not drawn)

>  <UNIT_INFO>
%

>  <RAM network inhibition>
3.23

$$$$
>  <MOLECULE>
CCn1cc(C(=O)Nc2ccc3c(c2)OCCO3)c2cc(OC)c(OC)cc2c1=O

>  <UNIT_INFO>
%

>  <RAM network inhibition>
-1.36

$$$$
>  <MOLECULE>
COc1ccc2[nH]cc(CCNC(=O)C3CCCNC3=O)c2c1 (stereo not drawn)

>  <UNIT_INFO>
%

>  <RAM network inhibition>
2.98

$$$$
>  <MOLECULE>
CC1=C(C(=O)OCC(C)C)C(c2ccccc2Cl)NC(=O)N1C (stereo not drawn)

>  <UNIT_INFO>
%

>  <RAM network inhibition>
1.74

$$$$

Input line: Reported RAM network inhibition for O=C(c1ccccc1)N1CCN(c2ccc(NCc3ccc4c(c3)OCO4)cc2)CC1 : what is it?
Output line: 6.1

Input line: Reported RAM network inhibition for Cc1cc(NCc2ccccc2)nc(-c2ccccc2O)n1 : what is it?
Output line: 0.61

* * *

test: RAM signaling pathway blockade in yeast – S. cerevisiae, Pdr1DBD-CYC8 efflux-inhibited sensitized strain, primary screen (AID 1298);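 note: 0% = DMSO untreated cells without growth and 100% = 10 µM 1-NA-PP1 full growth; higher means more yeast growth rescued from 5-FOA killing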; conditions: S. cerevisiae cbk1-as DSE1-URA3 strain, 5-FOA growth OD615, 2 d; at 50 µM; active compounds read high
METRIC_NAME: RAM network inhibition (%)
Please give a number only; it is taken to be in %.

The following compounds have reported results that may help.
>  <COMPOUND>
CCOc1ccc(N(CC(=O)Nc2cccc(F)c2)S(=O)(=O)c2c(C)noc2C)cc1

>  <UNIT_INFO>
%

>  <RAM network inhibition>
5.5

$$$$
>  <COMPOUND>
O=C(Cc1cccs1)N1CCN(c2ccccn2)CC1

>  <UNIT_INFO>
%

>  <RAM network inhibition>
2.55

$$$$

Input line: Reported RAM network inhibition for COc1ccccc1N1CSC2=C(C#N)C(c3ccc(SC)cc3)CC(=O)N2C1 (centres undefined) : what is it?
Output line: 3.52

Input line: Reported RAM network inhibition for CCCc1nc(SCC(=O)Nc2cc(C)on2)c2c(=O)n(C)c(=O)n(C)c2n1 : what is it?
Output line: 4.78

Input line: Reported RAM network inhibition for Cc1ccccc1N(CC(=O)NCCSCc1ccco1)S(C)(=O)=O : what is it?
Output line: 7.43

Input line: Reported RAM network inhibition for Cc1cc(Nc2cc(F)ccc2C)n2ncnc2n1 : what is it?
Output line: 4.19

Input line: Reported RAM network inhibition for Cc1ccc(NS(=O)(=O)c2ccc3c(c2)oc(=O)n3C)cc1F : what is it?
Output line: 3.85

Input line: Reported RAM network inhibition for CC(=O)Nc1cc2ccc(OC(C)=O)cc2oc1=O : what is it?
Output line: 0.82

Input line: Reported RAM network inhibition for COc1ccccc1N(CC(=O)Nc1ccc2c(c1)OCO2)S(=O)(=O)c1ccccc1 : what is it?
Output line: 8.21

Input line: Reported RAM network inhibition for CCOCCOC(=O)C1=C(C)N(C)C(=O)NC1c1ccccc1Cl (centres undefined) : what is it?
Output line: 0.57

Input line: Reported RAM network inhibition for c1ccc2c(c1)[nH]c1nc3nncn3nc12 : what is it?
Output line: 7.04

Input line: Reported RAM network inhibition for CC(=NCCN1CCOCC1)C1=C(O)c2ccccc2C1=O : what is it?
Output line: -0.73

Input line: Reported RAM network inhibition for CCOC(=O)c1cc(-c2ccc(C)cc2)n(CC(=O)NCc2ccco2)c1C : what is it?
Output line: 5.82

Input line: Reported RAM network inhibition for CCOC(=O)c1ccc(NC(=O)NCCN2CCCCC2)cc1 : what is it?
Output line: 3.62

Input line: Reported RAM network inhibition for C=CCn1c(-c2ccc(N)cc2)nc2ccccc21 : what is it?
Output line: 1.23

Input line: Reported RAM network inhibition for O=C(Cn1cc2c(n1)CCCC2)N1CCCc2ccccc21 : what is it?
Output line: 1.48

Input line: Reported RAM network inhibition for O=C(Nc1ccc(Br)cc1F)C1CCCN(S(=O)(=O)c2cnc[nH]2)C1 (centres undefined) : what is it?
Output line: 5.06

Input line: Reported RAM network inhibition for COCCNC(=O)CN1C(=O)COc2ccc(Cl)cc21 : what is it?
Output line: 5.23

Input line: Reported RAM network inhibition for CC(C)NC(=O)NC(=O)COc1ncnc2sccc12 : what is it?
Output line: 2.67

Input line: Reported RAM network inhibition for CCCN(CCC(=O)Nc1ccccc1F)CC1CC1 : what is it?
Output line: -0.31
